B1: NP_015628.1 (parent)
chain: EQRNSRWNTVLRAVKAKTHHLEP

# Variants of: B1
# test_description: protein stability index of a GFP-peptide fusion (GPS, HEK-293T) (PSI 1-6); higher = more stable;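 further: lentivirally expressed fusion library, cells FACS-sorted into six equal-sized GFP/DsRed ratio bins, PSI computed from sequencing read fractions per bin weighted by bin number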
# experimental_parameters: c terminus: native
Label 1 when protein stability index >= 3; otherwise -1.

Ask | Check this variant for protein stability index at or above 3: "Q2I"
Reply | 1

Ask | Check this variant for protein stability index at or above 3: "L21W"
Reply | 1

Ask | Check this variant for protein stability index at or above 3: "A13E"
Reply | -1

Ask | Check this variant for protein stability index at or above 3: "E22N"
Reply | 1

Ask | Check this variant for protein stability index at or above 3: "R3M"
Reply | 1

Ask | Check this variant for protein stability index at or above 3: "K17I"
Reply | -1

Ask | Check this variant for protein stability index at or above 3: "P23F"
Reply | 1

Ask | Check this variant for protein stability index at or above 3: "R3G"
Reply | 1

Ask | Check this variant for protein stability index at or above 3: "H19W"
Reply | 1

Ask | Check this variant for protein stability index at or above 3: "N4G"
Reply | 1

Ask | Check this variant for protein stability index at or above 3: "L11F"
Reply | 1

Ask | Check this variant for protein stability index at or above 3: "T9S"
Reply | 1

Ask | Check this variant for protein stability index at or above 3: "E1R"
Reply | 1

Ask | Check this variant for protein stability index at or above 3: "A16S"
Reply | 1

Ask | Check this variant for protein stability index at or above 3: "E1T"
Reply | -1

Ask | Check this variant for protein stability index at or above 3: "A16T"
Reply | -1

Ask | Check this variant for protein stability index at or above 3: "L11Q"
Reply | 1

Ask | Check this variant for protein stability index at or above 3: "P23T"
Reply | 1

Ask | Check this variant for protein stability index at or above 3: "V14N"
Reply | 1

Ask | Check this variant for protein stability index at or above 3: "T18D"
Reply | 1

Ask | Check this variant for protein stability index at or above 3: "L21G"
Reply | 1
